Test system: human prostate carcinoma PC-3 cells
Test: CCK-8 cytotoxic activity assay, PC-3
Assay type: cell-based
Details: PC-3, 48 h, CCK-8, 48 h
Binary call on IC50 with cut-off 6 µM: strictly below means Condition met, and equality or higher means Condition not met.

compound: C=C(C)[C@@H](CCC(=O)CN(CC)CC)c1cc2c(c(=O)c(C)c1)C[C@@](C)(O)C2=O
group: Condition not met
//
compound: C=C(C)[C@H]1CCC(O)(CI)C2C3=C(C[C@@](C)(O)C3=O)C(=O)C(C)=CC21 (some centres unmarked)
group: Condition not met
//
compound: CN(Cc1cnc2nc(N)nc(N)c2n1)c1ccc(C(=O)N[C@@H](CCC(=O)O)C(=O)O)cc1 [Methotrexate, reference compound]
group: Condition met
//
compound: C=C(C)C(=O)OCC(=C)[C@H]1CCC(O)(CCl)C2C3=C(C[C@@](C)(O)C3=O)C(=O)C(C)=CC21 (some centres unmarked)
group: Condition met
//
compound: C=C(CO)[C@H]1CCC(O)(CCl)C2C3=C(C[C@@](C)(O)C3=O)C(=O)C(C)=CC21 (some centres unmarked)
group: Condition not met
//
compound: C=C(COC(=O)/C=C/C=C/C)[C@H]1CCC(O)(CCl)C2C3=C(C[C@@](C)(O)C3=O)C(=O)C(C)=CC21 (some centres unmarked)
group: Condition met
//
compound: C=C(C)[C@H]1CCC(O)(CCl)C2C3=C(C[C@@](C)(O)C3=O)C(=O)C(C)=CC21 (some centres unmarked)
group: Condition not met
//
compound: C#CCCCC(=O)O[C@]1(C)CC2=C(C1=O)C1C(=C)CC[C@H](C(=C)C)C1C=C(C)C2=O (some centres unmarked)
group: Condition not met
//
compound: C=C(COC(C)=O)[C@H]1CCC(O)(CCl)C2C3=C(C[C@@](C)(O)C3=O)C(=O)C(C)=CC21 (some centres unmarked)
group: Condition not met
//
compound: C=C1CC[C@H](C(=C)C)C2C=C(C)C(=O)C3=C(C(=O)[C@](C)(Cl)C3)C12 (some centres unmarked)
group: Condition met
//
compound: C=C(C)[C@@H](CCC(=O)COC(C)=O)c1cc2c(c(=O)c(C)c1)C[C@@](C)(O)C2=O
group: Condition not met
//
compound: C=C(C=O)[C@H]1CCC(O)(CCl)C2C3=C(C[C@@](C)(O)C3=O)C(=O)C(C)=CC21 (some centres unmarked)
group: Condition met
